Reference for the values: patent US10597388B2

- System: barnyardgrass (Echinochloa crus-galli)
- experiment.description: Test A greenhouse herbicide test, pre- and postemergence
- Format: in vivo
- details: Preemergence, 500 g ai/ha; 0 to 100 scale where 0 is no effect and 100 is complete control
assay.endpoint: Plant response rating, Barnyardgrass

Please report the recorded Plant response rating, Barnyardgrass for CCOC(=O)Oc1c(C)nn(C)c(=O)c1-c1c(C)sc2ccc(C)cc12 .
70

***
For the compound Cc1cc(C)c2ccccc2c1-c1c(OS(C)(=O)=O)c(C)nn(C)c1=O , what Plant response rating, Barnyardgrass is on record?
100

What measured Plant response rating, Barnyardgrass goes with C#CCOC(=O)Oc1c(C)nn(C)c(=O)c1-c1c(C)sc2ccc(C)cc12 ?
80

Need Plant response rating, Barnyardgrass of CC(=O)Oc1ccc2cccc(-c3c(OC(C)=O)c(C)nn(C)c3=O)c2c1 , thanks.
0

I am curious: what Plant response rating, Barnyardgrass value has been reported for COc1nn(C)c(=O)c(-c2c(C)ccc3ccccc23)c1OC(C)=O ?
100

###

Measured Plant response rating, Bluegrass values are reported for all entries that follow.
- Test system: bluegrass (annual bluegrass, Poa annua)
- experiment.description: Test D controlled growth environment herbicide test, pre- and postemergence
- Assay type: in vivo
- details: Postemergence, 125 g ai/ha; visual rating on scale 0 (no effect) to 100 (complete control), 14 to 21 d
Response field accepts a number only; no unit should be typed.

Recorded Plant response rating, Bluegrass for CCOC(=O)Oc1c(C)nn(C)c(=O)c1-c1c(C)sc2ccc(C)cc12 , please?
30

Further cases:
Request the reported Plant response rating, Bluegrass associated with CCOC(=O)Oc1c(C)nn(C)c(=O)c1-c1c(C)ccc2ccccc12
55

Param item = CCC(=O)Oc1c(C)nn(C)c(=O)c1-c1c(C)sc2ccc(Cl)cc12 ; retrieve measured Plant response rating, Bluegrass.
25

Suppose we examine the compound Cc1ccc2ccccc2c1-c1c(O)c(C)nn(C)c1=O ; what Plant response rating, Bluegrass value has been reported?
55

###

As shown below, each of these molecules has a reported Ragweed plant response rating value.
- System: ragweed (common ragweed, Ambrosia elatior)
- experiment.description: Test C greenhouse herbicide test, pre- and postemergence
- Format: in vivo
- details: postemergence, 62 g ai/ha; scale 0 to 100, 0 no effect, 100 complete control

Any idea what Ragweed plant response rating came out for CCOC(=O)Oc1c(C)nn(C)c(=O)c1-c1c(C)ccc2ccccc12 on ragweed (common ragweed, Ambrosia elatior)?
90

I'm curious: which Ragweed plant response rating was measured for COc1nn(C)c(=O)c(-c2c(C)ccc3ccccc23)c1OC(=O)OC(C)C tested on ragweed (common ragweed, Ambrosia elatior)?
90

// next item, Ragweed plant response rating requested
Find Ragweed plant response rating (ragweed (common ragweed, Ambrosia elatior)) for the entry CC(=O)Oc1c(C)nn(C)c(=O)c1-c1c(C)oc2ccc(C)cc12
90

###

- Tested on: kochia (Kochia scoparia)
- experiment.description: Test C greenhouse herbicide test, postemergence
- Type: in vivo
- details: postemergence, 62 g ai/ha; scale 0 to 100, 0 no effect, 100 complete control
- Description: At the same time, plants selected from these crop and weed species and also chickweed (common chickweed, Stellaria media), kochia (Kochia scoparia), and oat, wild (wild oat, Avena fatua), were planted in pots containing Redi-Earth® planting medium (Scotts Company, 14111 Scottslawn Road, Marysville, Ohio 43041) comprising spaghnum peat moss, vermiculite, wetting agent and starter nutrients and treated with postemergence applications of test chemicals formulated in the same manner. […]
assay.endpoint: Kochia plant response rating

Completed entries (count: 3):
Which measured Kochia plant response rating value corresponds to Cc1cc(C)c2sc(C)c(-c3c(OC(=O)OCCCl)c(C)nn(C)c3=O)c2c1 ?
70

Can you look up the measured Kochia plant response rating of Cc1cc(C)c2sc(C)c(-c3c(OC(=O)OC(C)C)c(C)nn(C)c3=O)c2c1 for me?
30

What Kochia plant response rating value was documented for this compound, C#CCOC(=O)Oc1c(C)nn(C)c(=O)c1-c1c(C)sc2ccc(C)cc12 ?
90

Could you now consider this next compound?
Dear colleague, I am looking for the recorded Kochia plant response rating of the following compound: COC(=O)Oc1c(C)nn(C)c(=O)c1-c1c(C)sc2c(C)cc(C)cc12
75

###

Ragweed plant response rating reference
- System: ragweed (common ragweed, Ambrosia elatior)
- experiment.description: Test C greenhouse herbicide test, pre- and postemergence
- Format: in vivo
- details: Postemergence, 31 g ai/ha; 0 to 100 scale (0 no effect, 100 complete control)
- Excerpt: […]
Reply: number alone, nothing else.

Some solved cases for reference:
Quick check: Ragweed plant response rating of COc1nn(C)c(=O)c(-c2c(C)sc3ccccc23)c1O [Compound 33] ?
85

Could you tell me which Ragweed plant response rating is on file for Cc1cc(C)c2sc(C)c(-c3c(OC(=O)OC(C)C)c(C)nn(C)c3=O)c2c1 [Compound 67] ?
70

Report Ragweed plant response rating for Cc1cc(C)c2ccccc2c1-c1c(O)cnn(C)c1=O [Compound 51] please.
10

What Ragweed plant response rating value was documented for this compound, COc1nn(C)c(=O)c(-c2c(C)ccc3ccccc23)c1O [Compound 54] ?
90

May I ask what Ragweed plant response rating has been recorded for Cc1ccc2ccc(C)c(-c3c(O)c(C)nn(C)c3=O)c2c1 [Compound 60] ?
85

Query: Ragweed plant response rating; subject: CC(=O)Oc1c(C)nn(C)c(=O)c1-c1c(C)oc2ccc(C)cc12 [Compound 14]
15

Param item = CC(=O)Oc1c(C)nn(C)c(=O)c1-c1c(C)sc2ccc(C)cc12 [Compound 25] ; retrieve measured Ragweed plant response rating.
90

Entry Cc1nn(C)c(=O)c(-c2c(C)sc3ccccc23)c1O [Compound 65] : reported Ragweed plant response rating = ?
55

# ---- query compound ----
Suppose we examine the compound COc1ccc2ccccc2c1-c1c(O)c(C)nn(C)c1=O [Compound 40] ; what Ragweed plant response rating value has been reported?
45

###

- System: field violet (Viola arvensis)
- experiment.description: Test D controlled growth environment herbicide test, pre- and postemergence
- Assay type: in vivo
- details: Postemergence, 125 g ai/ha; visual rating on scale 0 (no effect) to 100 (complete control), 14 to 21 d
Listed below: Plant response rating, Field Violet values for each entry.

The cases that follow already have their Plant response rating, Field Violet on record.
Quick one: Plant response rating, Field Violet of COC(=O)Oc1c(C)nn(C)c(=O)c1-c1c(C)sc2c(C)cc(C)cc12 [Compound 81] ?
100

Item under review: C#CCOC(=O)Oc1c(C)nn(C)c(=O)c1-c1c(C)sc2ccc(C)cc12 [Compound 87] . Reported Plant response rating, Field Violet?
100

Query: Plant response rating, Field Violet; subject: COc1nn(C)c(=O)c(-c2c(C)ccc3ccccc23)c1OC(=O)OC(C)C [Compound 36]
90

Alright, here's another compound for you.
Return reported Plant response rating, Field Violet; argument: COc1nn(C)c(=O)c(-c2c(C)ccc3ccccc23)c1O [Compound 54]
95

###

Below is a list of entries, each paired with its recorded Plant response rating, Waterhemp value.
- Tested on: waterhemp (common waterhemp, Amaranthus rudis)
- experiment.description: Test C greenhouse herbicide test, pre- and postemergence
- Assay type: in vivo
- details: Preemergence, 62 g ai/ha; scale 0 to 100, 0 is no effect, 100 is complete control
Lab note: write the figure by itself, no unit.

Check out these entries, answers already filled in.
For the compound shown here, Cc1cc(C)c2ccccc2c1-c1c(OS(C)(=O)=O)c(C)nn(C)c1=O , give the reported Plant response rating, Waterhemp.
85

For CC(=O)Oc1c(C)nn(C)c(=O)c1-c1c(C)sc2c(C)cc(C)cc12 , what is its reported Plant response rating, Waterhemp?
85

What does the record list as Plant response rating, Waterhemp for COc1nn(C)c(=O)c(-c2c(C)ccc3ccccc23)c1O ?
100

// query Plant response rating, Waterhemp value for entry Cc1ccc2ccccc2c1-c1c(O)c(Cl)nn(C)c1=O
100

What Plant response rating, Waterhemp value was documented for this compound, Cc1nn(C)c(=O)c(-c2c(C)sc3ccc(Cl)cc23)c1O ?
90

Continuing:
So what's the measured Plant response rating, Waterhemp for this one? Cc1ccc2ccc(C)c(-c3c(O)c(C)nn(C)c3=O)c2c1
100

###

- System: wheat (winter wheat, Triticum aestivum)
- experiment.description: Test C greenhouse herbicide test, pre- and postemergence
- Assay type: in vivo
- details: Postemergence, 31 g ai/ha; 0 to 100 scale (0 no effect, 100 complete control)
- Source text: […]
Measured Wheat plant response rating of individual entries

Here are 4 compounds together with their reported answers.
Need Wheat plant response rating, item CCC(=O)Oc1c(C)nn(C)c(=O)c1-c1c(C)sc2c(C)cc(C)cc12
0

Request the reported Wheat plant response rating associated with Cc1ccc2ccc(C)c(-c3c(O)c(C)nn(C)c3=O)c2c1
5

// Wheat plant response rating lookup, key: COc1nn(C)c(=O)c(-c2c(C)sc3ccccc23)c1O
0

Name the recorded Wheat plant response rating for CC(=O)Oc1c(C)nn(C)c(=O)c1-c1c(C)oc2ccc(C)cc12 .
0

Others:
Would you kindly share the measured Wheat plant response rating for Cc1ccc2ccccc2c1-c1c(O)c(C)nn(C)c1=O ?
0
